Known IC50 of a selection of compounds
tested on: H1975; experiment: CCK-8 proliferation, NCI-H1975 (H1975); type: cell-based, Human; conditions: Homo sapiens, NCI-H1975; CCK-8; 96 hours; read-out: Inhibitory activity (IC50) on tumor cell proliferation, H1975

Sample answers from the record:
O=C1CCC(Nc2cccc(CN3CCN(c4ccc(-c5cc(F)c6c(c5)C(=O)N(C(C(=O)Nc5nccs5)c5ncn7c5CCC7)C6)cc4)CC3)c2)C(=O)N1 (stereo not drawn) [GT-06188]	1 to 10 nM
O=C1CCN(c2ccc(CN3CCN(c4ccc(-c5cc(F)c6c(c5)C(=O)N(C(C(=O)Nc5nccs5)c5ncn7c5CCC7)C6)cc4)CC3)cn2)C(=O)N1 (stereo not drawn) [GT-06166]	1 to 10 nM
Cc1nc2c(F)cc(-c3nc(Nc4ccc(N5CCC(N(C)Cc6ccc(N7CCC(=O)NC7=O)cn6)CC5)cn4)ncc3F)cc2n1C(C)C [GT-06840]	100 to 500 nM
O=C1CCN(c2cccc(CN3CCN(C4CCN(c5ccc(Nc6ncc7nc(Nc8ccccc8)n(C8CCCC8)c7n6)cc5)CC4)CC3)c2)C(=O)N1 [GT-05940]	100 to 500 nM
CN(Cc1ccc(N2CCC(=O)NC2=O)nc1)C1CCN(c2ccc(Nc3ncc4nc(Nc5ccccc5)n(C5CCCC5)c4n3)cc2)CC1 [GT-05871]	100 to 500 nM

Shifting focus to the compound that follows.
QUERY: # get_value(readout='IC50', item= O=C1CCN(c2cccc(CN3CCN(c4ccc(-c5cc(F)c6c(c5)C(=O)N(C(C(=O)Nc5nccs5)c5ncn7c5CCC7)C6)cc4)CC3)c2)C(=O)N1 (stereo not drawn) [GT-06165] )
RESULT: 1 to 10 nM

---

System: CCRF-CEM
Assay: CCK-8 proliferation, CCRF-CEM
Assay type: cell-based, Human
Conditions: Homo sapiens, CCRF-CEM; CCK-8; 96 hours; read-out: Inhibitory activity (IC50) on tumor cell proliferation, CCRF-CEM
Protocol: The tumor cells used herein were cultured in a cell culture medium listed in table A1 at 37°C in an incubator with 5% CO2. […] IC50 values of the compounds of the present disclosure (including the compounds in Table 1, and compounds of examples) were measured using the Meilun Cell Counting Kit-8 kit from Dalian Meilun Biotech Co., Ltd. Assay details are as follows: tumor cells were seeded in a 96-well plate at a density listed in Table A2. […]
Metric Name: IC50

Sample answers from the record:
CC(=O)c1c(C)c2cnc(Nc3ccc(N4CCNCC4)cn3)nc2n(C2CCCC2)c1=O [Palbociclib, reference compound]	1000 to 5000 nM
O=C1CCC(c2ccc(CN3CCN(c4ccc([C@@H]5c6ccc(O)cc6CC[C@@H]5c5ccccc5)cc4)CC3)cc2)C(=O)N1 (stereo partly drawn) [GT-03856]	100 to 500 nM
Cc1ccc(C(=O)Nc2ccc(CN3CCN(Cc4ccc(C5CCC(=O)NC5=O)cc4)CC3)c(C(F)(F)F)c2)cc1C#Cc1cnc2cccnn12 (stereo not drawn) [GT-03936]	100 to 500 nM

Kindly review the next molecule as well.
QUERY: If you can, please state the reported IC50 value of CN(C)C(=O)c1cc2cnc(Nc3ccc(N4CCN(Cc5ccnc(N6CCC(=O)NC6=O)c5)CC4)cn3)nc2n1C1CCCC1 [GT-07475] .
RESULT: 500 to 1000 nM
